biological target: p70S6K (T412E mutant) (Homo sapiens (Human), UniProt P23443, T412E); experiment: p70S6K enzyme assay; type: biochemical; conditions: 24 μM ATP, 90 min at 25° C., Caliper mobility shift
Sequence (P23443 whole entry T412E): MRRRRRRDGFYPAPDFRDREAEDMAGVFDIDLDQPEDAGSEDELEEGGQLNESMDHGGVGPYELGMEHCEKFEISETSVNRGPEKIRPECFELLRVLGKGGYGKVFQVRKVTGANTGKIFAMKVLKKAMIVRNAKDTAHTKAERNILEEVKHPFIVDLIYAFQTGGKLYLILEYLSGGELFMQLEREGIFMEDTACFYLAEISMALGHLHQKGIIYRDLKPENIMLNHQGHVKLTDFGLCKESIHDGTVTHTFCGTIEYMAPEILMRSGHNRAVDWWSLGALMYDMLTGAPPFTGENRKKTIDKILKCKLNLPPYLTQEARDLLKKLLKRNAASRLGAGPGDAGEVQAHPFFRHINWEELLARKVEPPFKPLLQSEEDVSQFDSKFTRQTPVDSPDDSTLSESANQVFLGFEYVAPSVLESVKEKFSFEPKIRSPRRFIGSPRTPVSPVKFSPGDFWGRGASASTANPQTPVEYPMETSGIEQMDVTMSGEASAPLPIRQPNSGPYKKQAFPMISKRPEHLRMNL
pIC50: −log10 of the molar value.
Below, each entry is listed with its recorded pIC50.

NC(=O)c1ccnc2c(N[C@H](CN3CCC3)c3ccc(OC(F)(F)F)c(Cl)c3)ncnc12    > 7.60
CNC[C@@H](Nc1ncnc2c(C(N)=O)ccnc12)c1cc(F)c(F)cc1F    7.00 to 7.60
NC(=O)c1ccnc2c(N[C@H](CN3CCC3)c3ccc(Cl)c(C(F)(F)F)c3)ncnc12    > 7.60

What does the data say about its pIC50? Entry: NC(=O)c1ccnc2c(N[C@H](CN3CCC3)c3cccc(F)c3)ncnc12
> 7.60

// repeat for NC(=O)c1cccc2c(N[C@H](CN3CCC3)c3ccc(Cl)c(Cl)c3)nnnc12 and report
> 7.60

Cited source: patent US9981925B2
